Reference source: the supplement of paper PMC9694430

Test system: LOC_OS01G14860-cb001
Experiment: thermal shift delta Tm vs DMSO control; higher = stronger stabilization (binding);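 also: purified Escherichia coli-expressed rice kinase domain construct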
Conditions: 12.5 µM; protein concentration 2 µM
Task for the reader: assign each of the following molecules its reported thermal shift delta Tm.
Respond numerically; units are °C and should not be typed.

## Task Query (molecule): Cc1cc(C(=O)NOCCO)c(Nc2ccc(I)cc2F)n(C)c1=O ; field requested: thermal shift delta Tm
## Result 0.16

## Task Same for COC(=O)N[C@@H](C)CNc1nccc(-c2cn(C(C)C)nc2-c2cc(Cl)cc(NS(C)(=O)=O)c2F)n1
## Result 5.56

## Task And for Cc1c(NC(=O)c2ccc(C(C)(C)C)cc2)cccc1-c1cn(C)c(=O)c(Nc2ccc(C(=O)N3CCOCC3)cc2)n1 ?
## Result -0.01

## Task Now give it for Cn1ncc(Cl)c1-c1cc(C(=O)N[C@H](CN)Cc2ccc(F)c(F)c2)oc1Cl too.
## Result 0.15

## Task Param item: Cn1c2ccccc2c2c3c(c4c5ccccc5n(CCC#N)c4c21)CNC3=O
## Result 4.78

## Task Cc1ccc(C(=O)Nc2ccc(Oc3cc4cnn(C)c4cc3-c3cn[nH]c3)c(F)c2)c(=O)n1-c1ccc(F)cc1 ?
## Result 3.24

## Task # repeat for Cc1ccc(Nc2cc(N[C@@H]3CCCC[C@@H]3N)nnc2C(N)=O)nc1C
## Result 4.3

## Task Follow-up entry: O=C1Nc2ccc(CN3C(=O)CSC3=O)cc2/C1=C/c1cc(CN2CCOCC2)c[nH]1
## Result 0.42

## Task # repeat for CN1CCC(CNc2ccc3ncc(-c4cccc(OC(F)(F)F)c4)n3n2)CC1 [SGI-1776 free base]
## Result 0.51

## Task Subsequent entry: CC(C)(O)CNc1ncc(-c2ccnc(Nc3ccncc3)n2)c(CC2CC2)n1
## Result 2.25

## Task Next entry: COc1ccc(S(=O)(=O)N(CCO)c2ccccc2CN(C)C/C=C/c2ccc(Cl)cc2)cc1 [KN-93 Phosphate]
## Result 0.51

## Task Same lookup for COc1cc2ncnc(Nc3cccc(Cl)c3)c2cc1OC , please.
## Result 0.56

## Task Next up: CCCCNc1ncc(-c2ccc(CN3CCOCC3)cn2)c(NC2CCC(O)CC2)n1 (stereo not drawn)
## Result 1.13

## Task Same question for CCCCCCCCCCCCCCCCOP(=O)([O-])OCC[N+](C)(C)C please.
## Result -3.1

## Task Also, NC[C@@](O)(c1ccc(Cl)cc1)c1ccc(-c2cn[nH]c2)cc1 please.
## Result 0.53

## Task Entry to check: Cc1nc(N)sc1-c1ccnc(Nc2ccc(N3CCOCC3)cc2)n1
## Result 2.6

## Task Try this molecule too: COc1cc(CCc2cc(NC(=O)c3ccc(N4CC(C)NC(C)C4)cc3)n[nH]2)cc(OC)c1 (stereo not drawn)
## Result 0.38

## Task Also, FC(F)(F)c1ccc(/C=C/c2nc(COc3ccc(CCCCn4ccnn4)cc3)co2)cc1 please.
## Result 0.08

###

Tested on: LOC_OS02G54510-cb004
Experiment: thermal shift delta Tm vs DMSO control; higher = stronger stabilization (binding)
Conditions: 12.5 µM; protein concentration 2 µM
// map thermal shift delta Tm onto a label; ranges lo: < -0.05 °C; med: ≥ -0.05 °C and < 2 °C; hi: ≥ 2 °C

## Task Record CC(C)n1nc(-c2ccc3oc(N)nc3c2)c2c(N)ncnc21 — which class?
## Result med

## Task Try this molecule next: CCOc1cc(C(=O)N2CCC(N3CCN(C)CC3)CC2)ccc1Nc1ncc2c(n1)N(C1CCCC1)c1ccccc1C(=O)N2C
## Result lo

## Task Consider next the molecule C1=N/C2=N/c3ccc(OCCN4CCCC4)c(c3)COC/C=C/COCc3cccc(c3)C(=C1)N2 [Pacritinib (SB1518)] in the same way.
## Result hi

## Task Another molecule: CNC(=O)c1ccc(-c2cnc3ncc(Cc4ccc5ncccc5c4)n3n2)cc1F
## Result med

## Task Let us now turn to Nc1cccc(-c2cc3c(Oc4cccc(O)c4)ncnc3[nH]2)c1
## Result med

## Task Next entry: COc1cc(N2CCC(N3CCN(C)CC3)CC2)ccc1Nc1ncnc(Nc2ccccc2S(=O)(=O)C(C)C)n1
## Result med

## Task Now give it for C[C@@]1(C(=O)Nc2ccc(F)nc2)CCCN1c1nc(Nc2cc(C3CC3)n[nH]2)c2cccn2n1 too.
## Result hi

## Task Try this molecule too: CNC(=O)c1ccccc1Nc1nc(Nc2ccc(N3CCOCC3)cc2OC)ncc1Cl
## Result lo

###

Kindly supply the reported thermal shift delta Tm values for the records listed here.
Tested on: LOC_OS02G17970-cb001
Assay: thermal shift delta Tm vs DMSO control; higher = stronger stabilization (binding)
Conditions: 12.5 µM; protein concentration 2 µM
Structures can show the parent of a compound that is named as a salt.

## Task Suppose we examine the compound CC(C)(C)c1cc(NC(=O)Nc2ccc(-c3cn4c(n3)sc3cc(OCCN5CCOCC5)ccc34)cc2)no1 [Quizartinib (AC220)] ; what thermal shift delta Tm value has been reported?
## Result 1.06 °C

## Task Also need Nc1ccc(-c2ccc3ncc4ccc(=O)n(-c5cccc(C(F)(F)F)c5)c4c3c2)cn1 [Torin 2] , thanks.
## Result 1.12 °C

## Task Please answer likewise for COc1cc2c(N3CCN(C(=O)Nc4ccc(OC(C)C)cc4)CC3)ncnc2cc1OCCCN1CCCCC1 [Tandutinib (MLN518)]
## Result -0.44 °C

## Task Queued: Nc1ncccc1-c1nc2ccc(-c3ccccc3)nc2n1-c1ccc(C2(N)CCC2)cc1 [Miransertib (ARQ 092) HCl]
## Result -0.46 °C

## Task Next compound up: N#CC1(c2ccc(NC(=O)c3cccnc3NCc3ccncc3)cc2)CCCC1 [Apatinib]
## Result -0.16 °C

## Task What about this compound? Cc1cc(CN2CCN(c3c(Br)cnc4nc(-c5ccc(N6CCN(C)CC6)cc5)[nH]c34)CC2)no1
## Result 0.14 °C

## Task Next compound up: CC(C)(C)Cn1c(N)nc2ccc(-c3[nH]c(C(C)(C)C)nc3-c3ccc(F)cc3)nc21
## Result -0.24 °C

## Task Would you mind doing Cc1cc(O)c(-c2ccc([C@@H](C)CN)cc2)c2c1[nH]c(=O)c1sccc12 [OTS514 hydrochloride] as well?
## Result 1.52 °C

###

System: LOC_OS01G13800-cb001
Assay: thermal shift delta Tm vs DMSO control; higher = stronger stabilization (binding)
Settings: 12.5 µM; protein concentration 2 µM
Would you mind telling me the reported thermal shift delta Tm of each entry?
Report the value in °C with no unit label.

## Task # lookup: thermal shift delta Tm of O=C(NC[C@H](O)CO)c1ccncc1Nc1ccc(I)cc1F
## Result 0.34

## Task Quick one: CCOc1cc2ncc(C#N)c(Nc3ccc(F)c(Cl)c3)c2cc1NC(=O)/C=C/CN(C)C [Pelitinib (EKB-569)]
## Result 0.55

## Task Input CC(C)(C)c1cc(NC(=O)Nc2ccc(-c3cn4c(n3)sc3cc(OCCN5CCOCC5)ccc34)cc2)no1 [Quizartinib (AC220)]
## Result 0.79

## Task CC(C)c1cnn2c(NCc3ccccc3-n3cccn3)nc(OC3CCCNC3)nc12 (centres undefined) , same question.
## Result 0.99

###

Test system: LOC_OS02G45750-cb003
Test: thermal shift delta Tm vs DMSO control; higher = stronger stabilization (binding)
Conditions: 12.5 µM; protein concentration 2 µM
Assay Readout: thermal shift delta Tm (°C)
Express it in °C; write the number only.

## Task If you can, please state the reported thermal shift delta Tm value of COc1cc(-c2cc(-c3ccc(N4CCNCC4)cc3)cnc2C)cc(OC)c1OC .
## Result 2.4

## Task Do the same for Cc1ccc(C(=O)Nc2cccc(C(F)(F)F)c2)cc1Nc1nc(-c2cccnc2)nc2c1cnn2C please
## Result 0.71

## Task Then what about the molecule Cn1cc(-c2ccc3c(c2)CCN3C(=O)Cc2cccc(C(F)(F)F)c2)c2c(N)ncnc21 ?
## Result 4.4

## Task // query: COc1cc(OC)c(C=C2C(=O)Nc3ccccc32)c(OC)c1
## Result -0.14

## Task Please give the result for CN1CCN(c2ccc3nc(-c4c(N)c5c(F)cccc5[nH]c4=O)[nH]c3c2)CC1 [Dovitinib (TKI-258) Dilactic Acid] too.
## Result 16.3

## Task Now the molecule COc1ccc(S(=O)(=O)N(CCO)c2ccccc2CN(C)C/C=C/c2ccc(Cl)cc2)cc1 [KN-93 Phosphate]
## Result 0.73

## Task Please do the same for COc1ccc2c(Oc3ccc(NC(=O)c4c(C)n(CC(C)(C)O)n(-c5ccccc5)c4=O)nc3)ccnc2c1 as well.
## Result 1.4

## Task Also, COc1cc2ccc(=O)oc2cc1O please.
## Result 0.7

## Task Repeat with CCCCNc1ncc(-c2ccc(CN3CCOCC3)cn2)c(NC2CCC(O)CC2)n1 (stereo not drawn)
## Result 13.7

## Task What do we get for Cn1c2ccccc2c2c3c(c4c5ccccc5n(CCC#N)c4c21)CNC3=O ?
## Result 5.83

## Task And C=CC(=O)Nc1cccc(Oc2nc(Nc3ccc(N4CCN(C)CC4)cc3)ncc2Cl)c1 ?
## Result 3.96

## Task Fc1ccc2[nH]ccc2c1-c1nc(N2CCOCC2)c2sc(CN3CCN(CC4CC4)CC3)cc2n1 , same question.
## Result 0

## Task Now the same for CC(C)NC(=O)C1CCC(n2c(NC(=O)c3ccc(F)cc3)nc3ccc(CN4CCC(C(C)(C)O)CC4)cc32)CC1 (stereo not drawn)
## Result 1.72

## Task Proceed to COc1cc(N2CCN(C)CC2)ccc1Nc1ncc2c(n1)N(C)c1ccccc1C(=O)N2
## Result 0.85

## Task Cool, now COc1cc(CCc2cc(NC(=O)c3ccc(N4CC(C)NC(C)C4)cc3)n[nH]2)cc(OC)c1 (stereo not drawn)
## Result 7.06

## Task What do you have for CCOC(=O)c1cnc2ccc(-c3cncc(NS(=O)(=O)c4ccccc4)c3)cn12 ?
## Result 1.34

## Task OC1CCC(Oc2cccc3cnc(Nc4ccc5nc[nH]c5c4)nc23)CC1 (stereo not drawn) ?
## Result 17.1

## Task Can you check C=CC(=O)Nc1cccc(Nc2nc(Nc3ccc(N4CCN(C(C)=O)CC4)cc3OC)ncc2C(F)(F)F)c1 next?
## Result 1.53
